Just for reference, paper PMC6407917 is where these values come from.

molecular target: UniProt:P42685; assay: biochemical; set-up: species or system HEK293/K-562/placenta mixed human extract; Kinobeads chemoproteomic competition binding, quantified by TMT LC-MS/MS, dose response up to 20 uM
Sequence (P42685 whole entry): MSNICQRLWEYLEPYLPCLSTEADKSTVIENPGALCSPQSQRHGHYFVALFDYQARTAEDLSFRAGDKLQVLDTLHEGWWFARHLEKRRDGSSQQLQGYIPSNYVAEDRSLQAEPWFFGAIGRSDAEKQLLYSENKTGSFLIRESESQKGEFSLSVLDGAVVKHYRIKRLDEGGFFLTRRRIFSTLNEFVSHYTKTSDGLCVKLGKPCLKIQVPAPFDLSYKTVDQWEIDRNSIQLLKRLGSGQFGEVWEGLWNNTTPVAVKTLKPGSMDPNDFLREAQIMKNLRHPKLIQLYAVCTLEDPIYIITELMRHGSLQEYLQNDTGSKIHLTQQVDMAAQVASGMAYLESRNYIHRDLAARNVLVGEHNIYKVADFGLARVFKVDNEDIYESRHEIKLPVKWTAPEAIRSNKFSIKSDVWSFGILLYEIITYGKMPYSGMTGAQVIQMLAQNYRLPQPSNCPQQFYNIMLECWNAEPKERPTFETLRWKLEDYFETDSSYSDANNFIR
MEASURE: IC50

1) COc1nc(N[C@H]2CC[C@H](NS(=O)(=O)CC(C)C)CC2)nc2[nH]nc(N3CCOC[C@H]3C)c12	≥ 20 µM

----------
target: UniProt:Q13554; assay: biochemical; design: species or system HEK293/K-562/placenta mixed human extract; Kinobeads chemoproteomic competition binding, quantified by TMT LC-MS/MS, dose response up to 20 uM
Sequence (Q13554 whole entry): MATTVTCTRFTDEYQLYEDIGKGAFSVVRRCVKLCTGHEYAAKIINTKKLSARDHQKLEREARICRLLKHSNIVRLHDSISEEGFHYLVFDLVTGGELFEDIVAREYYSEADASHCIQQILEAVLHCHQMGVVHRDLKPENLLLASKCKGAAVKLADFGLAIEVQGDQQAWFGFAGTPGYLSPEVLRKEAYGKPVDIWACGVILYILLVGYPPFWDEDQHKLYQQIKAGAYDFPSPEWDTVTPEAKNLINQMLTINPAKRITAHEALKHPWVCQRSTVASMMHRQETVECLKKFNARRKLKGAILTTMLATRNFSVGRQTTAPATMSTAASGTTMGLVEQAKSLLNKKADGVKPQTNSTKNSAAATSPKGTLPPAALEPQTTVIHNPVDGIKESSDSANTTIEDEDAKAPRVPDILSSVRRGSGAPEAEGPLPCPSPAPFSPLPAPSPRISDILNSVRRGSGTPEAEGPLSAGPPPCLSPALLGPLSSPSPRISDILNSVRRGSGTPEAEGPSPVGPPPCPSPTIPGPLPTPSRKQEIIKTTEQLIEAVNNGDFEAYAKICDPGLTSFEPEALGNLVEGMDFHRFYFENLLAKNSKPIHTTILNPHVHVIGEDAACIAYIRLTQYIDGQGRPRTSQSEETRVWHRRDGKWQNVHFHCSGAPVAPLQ
pIC50: −log10 of the molar value.
MEASURE: pIC50

1. COc1nc(N[C@H]2CC[C@H](NS(=O)(=O)CC(C)C)CC2)nc2[nH]nc(N3CCOC[C@H]3C)c12	≤ 4.70
